Reference source for all entries: PubChem BioAssay (NCI)

test system: HCC-2998 colon; assay: NCI-60 one-dose screen, 48 h (100 = growth as untreated, 0 = no growth, -100 = all killed); conditions: 10 µM unless noted
About 83,000 compounds went through this panel and 20% of them were active in at least one assay; those are over-represented in the sample as a whole.
measured-quantity: growth (%)
Please reply with the bare figure in % and do not write the unit itself.

Record excerpt, results attached:
[
  {
    "molecule": "O=C1/C(=C/c2ccc(F)cc2)CN(Cc2cn(CCNc3ccnc4cc(Cl)ccc34)nn2)C/C1=C\\c1ccc(F)cc1",
    "tested-system": "HCC-2998 colon",
    "measured-quantity": "growth",
    "observed-measurement": -92.1
  },
  {
    "molecule": "CCCCC1COc2cccc3c(SCC(=O)N(C)c4cccc5ccccc45)cc[n+]1c23 (stereo not drawn)",
    "tested-system": "HCC-2998 colon",
    "measured-quantity": "growth",
    "observed-measurement": 90.3
  },
  {
    "molecule": "CCOC(=O)c1[nH]c2cc(Cl)ccc2c1[C@@H](C(=O)NC(C)(C)C)N(CC)C(=O)CCCCC#Cc1cccc2c1CN(C1CCC(=O)NC1=O)C2=O (stereo partly drawn)",
    "tested-system": "HCC-2998 colon",
    "measured-quantity": "growth",
    "observed-measurement": 6.54
  },
  {
    "molecule": "CN1CCN(c2ccc3nc(-c4ccc5nc(-c6ccc(C(F)(F)F)cc6)[nH]c5c4)[nH]c3c2)CC1",
    "tested-system": "HCC-2998 colon",
    "measured-quantity": "growth",
    "observed-measurement": 87.2
  },
  {
    "molecule": "COc1ccc(-n2c(SCc3cc(OC)c(OC)c(OC)c3)nc3ccc(C)cc3c2=O)c(OC)c1",
    "tested-system": "HCC-2998 colon",
    "measured-quantity": "growth",
    "observed-measurement": 45.5
  },
  {
    "molecule": "CCCN1CCN(c2ccc3nc(-c4ccc5nc(-c6ccc(C(F)(F)F)cc6)[nH]c5c4)[nH]c3c2)CC1",
    "tested-system": "HCC-2998 colon",
    "measured-quantity": "growth",
    "observed-measurement": -89.8
  },
  {
    "molecule": "C=CC(=O)N1CC2(CCC(n3nc(-c4ccc(Oc5ccccc5)cc4)c4c(N)ncnc43)CC2)C1",
    "tested-system": "HCC-2998 colon",
    "measured-quantity": "growth",
    "observed-measurement": -77.8
  }
]

Okay, now this molecule:
Q: Param item = `O=S(=O)(Nc1ccccc1Cl)c1ccc(-c2cnc(C3CC3)o2)cc1` ; retrieve measured growth.
Ans: 39.9

###

Readings of growth for the listed compounds
system: SF-268 CNS; experiment: NCI-60 one-dose screen, 48 h (100 = growth as untreated, 0 = no growth, -100 = all killed); conditions: 10 µM unless noted
Compounds without any hit were thinned out: in the full panel of roughly 83,000, 20% have a hit.
Please reply with the bare figure in % and do not write the unit itself.

[
  {
    "compound": "CN1CCn2c(c(Sc3ccc(C(=O)NO)cc3)c3ccccc32)C1=O",
    "tested-system": "SF-268 CNS",
    "scale-unit": "%",
    "growth": -34.9
  },
  {
    "compound": "CN1CCc2cccc3c2C1Cc1ccc(O)c(O)c1-3 (stereo not drawn)",
    "tested-system": "SF-268 CNS",
    "scale-unit": "%",
    "growth": 87.6
  },
  {
    "compound": "O=C(N/N=C(\\CS(=O)(=O)c1ccccc1)c1cc2ccccc2oc1=O)c1ccccc1",
    "tested-system": "SF-268 CNS",
    "scale-unit": "%",
    "growth": 99.2
  },
  {
    "compound": "Cc1ccc(-c2nnc(COc3ccc(-c4nnc(N)s4)cc3)o2)cc1",
    "tested-system": "SF-268 CNS",
    "scale-unit": "%",
    "growth": 79.6
  },
  {
    "compound": "COc1cc(C(=O)N(C(C)C)C2CCCCC2)cc(OC)c1OC",
    "tested-system": "SF-268 CNS",
    "scale-unit": "%",
    "growth": 98.1
  }
]

Q: Param item = `COc1cc(/C=C/c2cc(/C=C/c3ccc(O)c(OC)c3)n(-c3ccccc3)n2)ccc1O` ; retrieve measured growth.
Ans: -12.5

Q: Param item = `Cc1nc2ccc(Cl)cc2n1C` ; retrieve measured growth.
Ans: 103

Q: Param item = `Cc1ccccc1-c1cc(-c2ccc(Br)s2)[nH]c(=O)c1C#N` ; retrieve measured growth.
Ans: 104

Q: Param item = Oc1ccc2ccccc2c1C1NN=C(c2ccccc2)S1 (stereo not drawn) ; retrieve measured growth.
Ans: 20.9

Q: Param item = CCOC(=O)C(CC(c1ccccc1)N1CCCCC1)[N+](=O)[O-] (stereo not drawn) ; retrieve measured growth.
Ans: 93

Q: Param item = `Cn1c2ccc(Cl)cc2c2nn(C(=O)c3ccccc3)c(=O)nc21` ; retrieve measured growth.
Ans: 104

Q: Param item = `COc1ccc(-c2nn(-c3ccc(NC(=O)c4ccc(Cl)c(Cl)c4)cc3)cc2-c2ccncc2)cc1Cl` ; retrieve measured growth.
Ans: 49.2

Q: Param item = C[C@@H](Oc1cc(-c2cnn(C3CC4(CCCNC4)C3)c2)cnc1N)c1c(Cl)ccc(F)c1Cl (stereo partly drawn) ; retrieve measured growth.
Ans: 23

Q: Param item = `O=C(Nc1ccc(Cl)c(Cl)c1)NC(CO)(CO)CO` ; retrieve measured growth.
Ans: 97.8
